- Tested on: MS2 coat protein
- assay_remarks: apparent Kd, MS2 coat protein; higher = weaker binding; RNA-MaP array; FMN 200 µM where present
- condition_parameters: designed as: ON switch for flavin mononucleotide; no ligand
Provide the recorded apparent Kd for the entries that follow.
State just the number; it will be interpreted in nM.

Query block: Name the recorded apparent Kd for GGACAUUUACAGAAGGGCAAGUUAGAUAGUGAAUAUUUAGAUCUGACUUGCAGGAUAUGUUGAACAUGAGGAUCACCCAUGUCC .
Result block: 13.7

Query block: Next sequence: AGCUCGGGUGCAGGAUAUCCGCCGGAUCGCAGUGGAGAAGGGCGCCAAGCGAACAUGAGGAUCACCCAUGUAUCGGAGCCGGAC
Result block: 55.6

Query block: Next sequence: GUGCAAACAUGAGGAUAUGUAUUAAAUAAUAAUACAGAAGGCAUGUCAAAUGACAUGAGGAUCACCCAUGUUGGCAAAAUGCGC
Result block: 144

Query block: Next sequence: UUGGAGUUCGUAGGAUAUGUAGGAUAUUCCUACAUGAGGAUCACCCAUGUUUACAUGGAAGAAGGACAGAAGGACGAGCUCCAU
Result block: 1580

Query block: Next sequence: ACAUACUUUCGAGGAUAUCGGUGAUAUAUUUAACGAGAAGGCGAUAAAAGAUAUAAACUUAUAGACAUGAGGAUCACCCAUGUA
Result block: 27.4

Query block: Next sequence: AAACCACAUGAGGAUCACCCAUGUGAUAAAAGCAUAGGAUAUCUGGAUGUGAGAGGCGGCAGAGAAGGAUGCACGC
Result block: 61.5

Query block: Next sequence: GGACGUGUCGUUUACAUGAGGAUCACCCAUGUCGAUAGACAUGAGGAUAUGGAUCCGAAUCGGAUCCAGAAGGCAUGCACGUCC
Result block: 260

----------
Provide the recorded apparent Kd for the entries that follow.
- Tested on: MS2 coat protein
- assay_remarks: apparent Kd, MS2 coat protein; higher = weaker binding; RNA-MaP array; FMN 200 µM where present
- condition_parameters: designed as: ON switch for flavin mononucleotide; no ligand

Query block: Name the recorded apparent Kd for UUCGAGCCAAGGCUCGCGAGUACACAGGAUAUGAAAAGUCACAUGAGGAUCACCCAUGUCCAAAAUCAGAAGGGUGAGACUAAG .
Result block: 520 nM

Query block: Next sequence: GGGCGUAAUACAUGAGGAUCACCCAUGUCAGAAAGGGUAAUCAGAAGGUACUAUUAGAGAAAGAGUAAGGAUAUGAAUACGCCC
Result block: 876 nM

Query block: Next sequence: AAAACAUGAGGAUCACCCAUGUUAAGAUCGGUUAAUAGAAGUGAGGAUAUACGAAGUUAAAGCUGGUAGAAGGCACUGGGUACA
Result block: 29.2 nM

Query block: Next sequence: UUGGACGUCUUAGGAUAUGUAGGAUAUUCCUACAUGAGGAUCACCCAUGUUGACAUGGAAGAAGGACAGAAGGACGAUGUCCAU
Result block: 418 nM

----------
- Tested on: MS2 coat protein
- assay_remarks: apparent Kd, MS2 coat protein; higher = weaker binding; RNA-MaP array; FMN 200 µM where present
- condition_parameters: ligand present: flavin mononucleotide; designed as: OFF switch for flavin mononucleotide
Provide the recorded apparent Kd for the entries that follow.
Kindly format the answer as number then unit.

Query block: Name the recorded apparent Kd for UUGUUGUAUGUAGGAUAUGCAUAUUAUUAUUAUGCAGAAGGACAUGAGGAUCACCCAUGUAUGUUAUUAUUAUGUGUUAUGUGU .
Result block: 71.5 nM

Query block: Next sequence: ACACGACAUGAGGAUCACCCAUGUGAGGAUAUCGAACUCAACUAAGCACAAAGUAACCCGAGAAGGCACACAAU
Result block: 24.1 nM

Query block: Next sequence: CCUUACACCGAGAAGGGCACGUAUUGAAGAGGGUGCCAGGAACAUCACAUGAGGAUCACCCAUGUGCAGGAUAUCGGCAGGAAC
Result block: 22.3 nM

Query block: Next sequence: CUUCGUAUAGAGGAUAUAGGUUACCUCGGUAUCCUAGAAGGCUGUACAUGAGGAUCACCCAUGUACUUCAGAUC
Result block: 14.5 nM

----------
- System: MS2 coat protein
- assay_remarks: apparent Kd, MS2 coat protein; higher = weaker binding; RNA-MaP array
- condition_parameters: ligand present: flavin mononucleotide; designed as: ON switch for flavin mononucleotide
Provide the recorded apparent Kd for the entries that follow.
State just the number; it will be interpreted in nM.

Query block: Name the recorded apparent Kd for GUGUACAUGAGGAUCACCCAUGUGAGAGCCACAUAGGGCCAGAAGGAUAUCUAUACUACCGCGUCAGAGAAGGUCUGUUGAUUU .
Result block: 24.9

Query block: Next sequence: UCGAGUAAGGAGAAGGACUAAUGGACUCACAAAGUAGGAUAUCCUGAACAUGAGGAUCACCCAUGUUGAUGUAACAUGUACUGG
Result block: 80.1

Query block: Next sequence: UGGUUUGUCCAUACAUGAGGAUCACCCAUGUAACACUGGCCCAGAAGGCGAAAAUGGCAGCCAGUCGAGGAUAUGGGCUGUAUG
Result block: 26.6

Query block: Next sequence: UUUAUUCUCUAUACAUGAGGAUCACCCAUGUCAAUGAUGUGCAGAAGGUGGUUCGGCUGUGACUCCAAGGAUAUGCAGAGAAUU
Result block: 115

Query block: Next sequence: UAGACGCACAAACAUGAGGAUCACCCAUGUGUACAGACGCUGCAGGAUAUCCUCUGAAGUUAGUAGGAGAAGGGCAAACAACCU
Result block: 27.3

Query block: Next sequence: AAUUAUACAUGAGGAUCACCCAUGUCAAAUAUUGAUAGCUGGCAGGAUAUGAUAGAGACGGAAACUCAGAAGGGCCCGAUGAAC
Result block: 12.6

Query block: Next sequence: GCCUAGGGUCAAGGAUAUCACCCAGUGGUCCGUACAUGAGGAUCACCCAUGUCACCGGGAACGGGUGAGAAGGUGAAAAGUCGA
Result block: 9.93

----------
- Test system: MS2 coat protein
- assay_remarks: apparent Kd, MS2 coat protein; higher = weaker binding; RNA-MaP array; FMN 200 µM where present
- condition_parameters: designed as: OFF switch for flavin mononucleotide; no ligand
We use 20 nM as the dividing line for apparent Kd: on or above the line is Fulfilled, below is Not fulfilled.

Query block: Has GGUACUCAAAGAGUACCAAUACGAACAUGAGGAUCACCCAUGUAGGAUAUGCUACUCAAAGAGUAGCAGAAGGACAUGUGCUUU a recorded apparent Kd greater than or equal to 20 nM?
Result block: Fulfilled

Query block: Next sequence: AGCCUGCUGCGAGGAUAUCAACUAAAGGGUCCGAUUUCCGAGCGGAACAUGAGGAUCACCCAUGUUGAGAAGGCGCGAGUAUAG
Result block: Fulfilled

Query block: Next sequence: GGAUGACAAAGUCAUCCUAUUCGAACAUGAGGAUCACCCAUGUAGGAUAUGCAACUCAAAGAGUUGCAGAAGGACAUGUGCUUU
Result block: Fulfilled

Query block: Next sequence: UAAAAGACUAGCAAAUAAGUUCCACAUGAGGAUCACCCAUGUCAGGAUAUGAGCAGCAAAGCUGCUCAGAAGGGAUAGCUAGUC
Result block: Not fulfilled

Query block: Next sequence: UACCUGAGGCAAAGCUUUAGGUAUACAUGAGGAUCACCCAUGUAGGAUAUGGUAGGCUUUGCUUACCAGAAGGACAUGUUAAUA
Result block: Not fulfilled

Query block: Next sequence: GCACCAAGAGGAUAUACCGAGGUCAUCUACUUUGCAUAGCGACAUGAGGAUCACCCAUGUAGAAGGUUUGUCGU
Result block: Fulfilled

Query block: Next sequence: GCGCGCGCCGCAGGAUAUGGUUUGUUCGUUGAACCAGAAGGGCGACAUGAGGAUCACCCAUGUACAUGAGGAUCACCCAUGUGC
Result block: Fulfilled

Query block: Next sequence: GUAUAUAGUGUGAGGAUAUGCUGGUCCUUGGAUCAGCAGAAGGCACAUGAGGAUCACCCAUGUAGUUAAAUAUA
Result block: Fulfilled

Query block: Next sequence: AAUAUGAGCUGGAAUAACCUCAAAACAUGAGGAUCACCCAUGUAGGAUAUCAGCACGAUAAGUGCUGAGAAGGACAACCAGCUC
Result block: Not fulfilled

Query block: Next sequence: GGAUGUGUGUAAGGAUAUGCAUCACUGAGAAAUUUAGUGAGGAAGAUCACAUGAGGAUCACCCAUGUAGAAGGUACACACGUGG
Result block: Not fulfilled

Query block: Next sequence: GUUUAGUGAGGAUAUGUGGCUUCGAUCGUGCGCGGUCGGCUACAGAAGGCACAUGAGGAUCACCCAUGUUCCUC
Result block: Fulfilled

Query block: Next sequence: GUCCCAGCUGAGGAUAUUAUCUGGCUCGACCGAUAAGAAGGCAGUACAUGAGGAUCACCCAUGUGGUUCGUUCG
Result block: Fulfilled

Query block: Next sequence: UCGCGGGUGCAGAAGGGAUAGGCCUAUUGUCGUGGUGUCCAAACUUAACAUGAGGAUCACCCAUGUCAGGAUAUGCCCACGCGA
Result block: Fulfilled

Query block: Next sequence: GUACUGUAGUGAGGAUAUACGAGAACGAUAGUUCGGCGAUCCAAUUAUACAUGAGGAUCACCCAUGUAGAAGGCACUUCAGUAC
Result block: Not fulfilled

Query block: Next sequence: AUUGUUCGAGAGAAGGGAACAUGAGGAUCACCCAUGUUACCUCACCUGGUGACGGAACUCCAAGUUCAGGAUAUCUCGAGCGAU
Result block: Not fulfilled
